# Test system: TTK
# measurement parameters: concentration: 1 μM, replicates: in singlicate; n = 1;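 also: KINOMEscan kinase panel screen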
Examples of compounds with documented %Inh follow.
Respond with a number, then the unit of measure.

The following compounds have reported results that may help.
compound	measured property	obs value
COc1ccc(CNC(=O)NC2CCN(c3ccnc(Nc4ccc(F)cc4)n3)C2)cc1 (stereo not drawn) [GSK1379706]	%Inh	21%
CCS(=O)c1ccc(-c2coc3ccc(-c4nnc(C)o4)cc23)cc1 (stereo not drawn)	%Inh	14%

Entry under test: COc1cc2ncn(-c3cc(OCCCc4ccccc4)c(C(N)=O)s3)c2cc1OC [GSK205189] . Its %Inh was 12%

###

# System: ABL2
# measurement parameters: concentration: 1 μM, replicates: in singlicate; n = 1
Examples of molecules with documented %Inh follow.
Respond with a number, then the unit of measure.

The following molecules have reported results that may help.
smiles record	target	%Inh
O=C1NC(=O)C(c2ccccc2)=C1Nc1cccc(O)c1	ABL2	1%
CCS(=O)(=O)c1ccc(OC)c(Nc2ncc(-c3ccc(F)cc3)o2)c1.Cl	ABL2	0%
CCC(=O)c1c(-c2ccccc2)c2cc(Cl)ccc2c(=O)n1Cc1cc(S(C)(=O)=O)n(CC(N)=O)n1	ABL2	0%
CCC(=O)c1c(-c2ccccc2)c2cc(Cl)ccc2c(=O)n1Cc1ccc(C(=O)O)cc1	ABL2	15%
CN1C(=O)C(Nc2cc(Cl)c(O)c(Cl)c2)=C(c2ccc(Cl)cc2)C1=O	ABL2	0%
Cc1cc(Nc2nc(-c3cccc(C)n3)nc3ccccc23)ccn1	ABL2	0%
CC(C)(C)c1ccc(C(=O)Nc2cn3cc(-c4ccccc4)ccc3n2)cc1	ABL2	21%
Nc1nc(N)c2nc(-c3ccccc3)[nH]c2n1	ABL2	9%

Entry under test: O=C(NCCNc1ccnc(Nc2ccc(F)cc2)n1)Nc1ccc2c(c1)OCO2 . Its %Inh was 0%

###

# Test system: FGFR2
# measurement parameters: concentration: 1 μM, replicates: in singlicate; n = 1
measured property: %Inh (%)
API: value field is a number in %; no unit string.

Entry under test: Cc1nc(N(C)[C@H]2CN(C(=O)CC#N)CC[C@H]2C)c2cc[nH]c2n1 . Its %Inh was 6

Entry under test: COc1cc(OC)cc(-c2cc3cnc(N)nc3nc2NC(=O)NC(C)(C)C)c1 . Its %Inh was 96.7

Entry under test: Nc1nc(N)c2nc(-c3ccccc3)[nH]c2n1 . Its %Inh was 32

Entry under test: COc1cccc(C2=C(N(C)c3ccccc3)C(=O)NC2=O)c1 . Its %Inh was 0

Entry under test: Cc1nn2c(=O)cc(N3CCOCC3)nc2n1Cc1cccc(Cl)c1Cl . Its %Inh was 30

Entry under test: Cc1cccc(-c2nc(Nc3ccc4c(cnn4C)c3)c3ccccc3n2)n1 . Its %Inh was 21

Entry under test: O=c1cc(N2CCOCC2)nc2n(Cc3ccc(F)c(Cl)c3)ccn12 . Its %Inh was 0

###

Examples of compounds with documented %Inh follow.
# Test system: BIKE
# Construct: gene BMP2K
# measurement parameters: concentration: 1 μM, replicates: in singlicate; n = 1
API: value field is a number in %; no unit string.

Entry under test: COc1ccc(-c2cc3c(C)nc(N)nc3n([C@H]3CC[C@H](OCCO)CC3)c2=O)cn1 . Its %Inh was 22
